Entries and their measured MIC follow.
Tested on: Streptococcus pyogenes C 203
Assay: In vitro antibacterial activity, MIC, broth microdilution
Type: cell-based
Conditions: Streptococcus pyogenes, C203; S. pyogenes C 203; MHB + 5% horse serum; 37° C., 18 hours; read-out: minimum inhibiting concentration MIC
Description: a) In vitro antibacterial activity The determination of the minimum inhibiting concentrations (MIC), with respect to Gram-positive and Gram-negative bacteria was carried out through the micromethod of gradual broth dilution in double series [National Committee for Clinical Laboratory Standards, 1990; Methods for dilution antimicrobial susceptibility tests for bacteria that grow aerobically; Approved standards […], Villanova, Pa.], by using Mueller Hinton Broth (MHB) as a culture medium. […]
Answer with a number only, understood to be in µg/mL.

Please review the following examples before continuing.
molecule | target_under_test | MIC (µg/mL)
CC[C@H]1OC(=O)[C@H](C)[C@@H](O[C@H]2C[C@@](C)(OC)[C@@H](O)[C@H](C)O2)[C@H](C)[C@@H](O[C@@H]2O[C@H](C)C[C@H](N(C)C)[C@H]2O)[C@](C)(O)C[C@@H](C)/C(=N\OCCNCCCCCCNCc2ccccc2C(F)(F)F)[C@H](C)[C@@H](O)[C@]1(C)O | Streptococcus pyogenes C 203 | 0.0156
CC[C@H]1OC(=O)[C@H](C)[C@@H](O[C@H]2C[C@@](C)(OC)[C@@H](O)[C@H](C)O2)[C@H](C)[C@@H](O[C@@H]2O[C@H](C)C[C@H](N(C)C)[C@H]2O)[C@](C)(O)C[C@@H](C)/C(=N\OCCCCCCNCCCCCNCc2ccccc2)[C@H](C)[C@@H](O)[C@]1(C)O | Streptococcus pyogenes C 203 | 0.0078

// next item, MIC requested
### Prompt Respond only with MIC recorded for CC[C@H]1OC(=O)[C@H](C)[C@@H](O[C@H]2C[C@@](C)(OC)[C@@H](O)[C@H](C)O2)[C@H](C)[C@@H](O[C@@H]2O[C@H](C)C[C@H](N(C)C)[C@H]2O)[C@](C)(O)C[C@@H](C)/C(=N\OCOCCOC)[C@H](C)[C@@H](O)[C@]1(C)O [Roxithromycin, reference compound]
### Response 0.0625
